Data origin, for the record: patent US9839642B2

- ASSAYED SYSTEM: NDM-1 (Klebsiella pneumoniae, UniProt C7C422)
- Sequence (C7C422 29-270, looked up, species assumed): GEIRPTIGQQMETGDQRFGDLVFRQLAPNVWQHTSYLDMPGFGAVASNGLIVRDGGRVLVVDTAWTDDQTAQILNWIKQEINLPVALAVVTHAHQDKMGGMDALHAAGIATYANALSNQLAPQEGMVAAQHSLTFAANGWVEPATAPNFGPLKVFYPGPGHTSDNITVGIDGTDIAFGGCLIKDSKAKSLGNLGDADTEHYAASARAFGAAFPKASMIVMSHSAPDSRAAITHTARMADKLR
- ASSAY: Enzyme activity: determination of IC50, fluorescence assay with CCF2-FA substrate
- Format: biochemical
- ASSAY CONDITIONS: enzyme 1 pM, CCF2-FA 1.25 μM, 2 hours at 25° C.; read-out: NDM1 IC50
MEASURED QUANTITY: IC50

Enquiry: IC50 for CNc1ccc(C[C@H](c2nnn[nH]2)[C@@H](C(=O)O)C(C)C)cn1 [Example 152] ?
Return: 0.062 µM

Enquiry: Now give it for CC(C)[C@H](C(=O)O)[C@H](Cc1ccc(N[C@@H]2CCNC2)nc1)c1nnn[nH]1 [Example 124] too.
Return: 0.54 µM

Enquiry: Another molecule to check: CC(C)[C@H](C(=O)O)[C@H](Cc1ccc(N2CCC[C@H]2CO)nc1)c1nnn[nH]1 [Example 126]
Return: 0.063 µM

Enquiry: One more molecule: CC(C)C[C@H](C(=O)O)[C@H](Cc1ccc2cc(NCCO)cnc2c1)c1nnn[nH]1 [Example 133]
Return: 0.012 µM

Enquiry: Quick one: CCC[C@H](C(=O)O)[C@H](Cc1ccc(-c2cnc(N3CCCC3)s2)cc1)c1nn[nH]n1 [Example 196]
Return: 0.0095 µM

Enquiry: Then CC(C)C[C@H](C(=O)O)[C@H](Cc1ccc(-c2ccc(N)nc2)nc1)c1nn[nH]n1 [Example 176] ?
Return: 0.025 µM

Enquiry: Try the molecule CCC[C@H](C(=O)O)[C@H](Cc1ccc(NC2CCCN(CCC)C2)cc1)c1nn[nH]n1 (some centres unmarked) [Example 223]
Return: 0.5 µM

Enquiry: Continue with CCC[C@H](C(=O)O)[C@H](Cc1ccc(Cl)cn1)c1nnn[nH]1 [Example 83]
Return: 0.88 µM

Enquiry: Also CC(C)C[C@H](C(=O)O)[C@H](Cc1ccc(C2CCNCC2)cc1)c1nnn[nH]1 [Example 102] ?
Return: 0.04 µM

Enquiry: Consider next the molecule CC(C)[C@H](C(=O)O)[C@H](Cc1ccc(C2CCNC2)c(F)c1)c1nnn[nH]1 (some centres unmarked) [Example 109] in the same way.
Return: 0.017 µM

Enquiry: Also check CCC[C@H](C(=O)O)[C@H](Cc1ccc(C2=CCCN(C)C2)cc1)c1nnn[nH]1 [Example 243]
Return: 0.4 µM

###

- ASSAYED SYSTEM: VIM-1 (Pseudomonas aeruginosa, UniProt A0A0F7KYQ8)
- ASSAY: Enzyme activity: determination of IC50, fluorescence assay with CCF2-FA substrate
- Format: biochemical
- ASSAY CONDITIONS: enzyme 30 pM, CCF2-FA 1.25 μM, 2 hours at 25° C.; read-out: VIM1 IC50
MEASURED QUANTITY: pIC50
In plain terms, pIC50 is the concentration in mol/L turned into minus its base-10 logarithm.

Enquiry: Item O=C(O)[C@@H](CCF)[C@H](Cc1ccccc1)c1nnn[nH]1 with VIM-1 (Pseudomonas aeruginosa, UniProt A0A0F7KYQ8) - pIC50?
Return: 7.82

Enquiry: Then CCC[C@H](C(=O)O)[C@H](Cc1ccc(-c2c(C)nn(C)c2C)cc1)c1nnn[nH]1 ?
Return: 8.12

Enquiry: Same for CC(C)[C@H](C(=O)O)[C@H](Cc1ccc(NCCN)nc1)c1nnn[nH]1
Return: 8.06

Enquiry: // repeat for CCC[C@H](C(=O)O)[C@H](Cc1ccc(S(C)(=O)=O)cc1)c1nn[nH]n1 and report
Return: 8.12

Enquiry: CCC[C@H](C(=O)O)[C@H](Cc1ccc(OCCN)nc1)c1nnn[nH]1 ?
Return: 8.08

Enquiry: Then CCC[C@H](C(=O)O)[C@H](Cc1ccc(-c2ccc(-c3nn[nH]n3)cc2)nc1)c1nn[nH]n1 ?
Return: 8.23

Enquiry: Same for CCC[C@H](C(=O)O)[C@H](Cc1ccc(-c2ccc3c(c2)CNC3)nc1)c1nnn[nH]1
Return: 8.19

###

- ASSAYED SYSTEM: NDM-1 (Klebsiella pneumoniae)
- ASSAY: Enzyme activity: determination of IC50, fluorescence assay with CCF2-FA substrate
- Type: biochemical
- ASSAY CONDITIONS: enzyme 1 pM, CCF2-FA 1.25 μM, 2 hours at 25° C.; read-out: NDM1 IC50
Values of IC50 strictly less than 90 nM map to 1, and values of at least 90 nM map to 0.

Enquiry: Please state whether IC50 is below 90 nM for CCC[C@H](C(=O)O)[C@H](Cc1ccc(C#N)cc1)c1nn[nH]n1 [Example 40]
Return: 0

Enquiry: NCc1ccc(-c2ccc(C[C@H](c3nnn[nH]3)[C@@H](C(=O)O)C3CCCC3)cc2)cc1 [Example 75] , same question.
Return: 1

Enquiry: Same thing, different compound: CC(C)[C@H](C(=O)O)[C@H](Cc1csc(C2CCNC2)n1)c1nnn[nH]1 (stereo partly shown) [Example 108]
Return: 0

Enquiry: Let us now turn to CC(C)[C@H](C(=O)O)[C@H](Cc1ccc(C2=CCNC2)c(F)c1)c1nnn[nH]1 [Example 69]
Return: 1

Enquiry: Here is the next compound: CCC[C@H](C(=O)O)[C@H](Cc1ccc(-c2cncc(N3CCN(C)CC3)c2)cc1)c1nn[nH]n1 [Example 190]
Return: 0

Enquiry: Now consider CCC[C@H](C(=O)O)[C@H](Cc1cnn2ncccc12)c1nnn[nH]1 [Example 156] and answer again.
Return: 0

Enquiry: Again, but for CC(C)[C@H](C(=O)O)[C@H](Cc1ccc(N2CCC[C@@H]2CO)nc1)c1nnn[nH]1 [Example 127]
Return: 0

Enquiry: Entry CCC[C@H](C(=O)O)[C@H](Cc1ccc(NCC(=O)N(C)C)cc1)c1nn[nH]n1 [Example 218] please
Return: 1

Enquiry: How about this compound: CCCC(C)[C@H](C(=O)O)[C@H](Cc1ccccc1)c1nnn[nH]1 (stereo partly shown) [Example 18]
Return: 1

Enquiry: // query: CCCC[C@@H](C(=O)O)[C@@H](Cc1ccc(-c2c(C)nn(C)c2C)cc1)c1nn[nH]n1 [Example 185]
Return: 0

Enquiry: Request: CC(C)C[C@H](C(=O)O)[C@H](Cc1cnc(NCCO)s1)c1nnn[nH]1 [Example 137]
Return: 0

Enquiry: Please answer likewise for CC(C)[C@H](C(=O)O)[C@H](Cc1ccc(Br)nc1)c1nnn[nH]1 [Example 91]
Return: 1

Enquiry: What would you report for CCC[C@H](C(=O)O)[C@H](Cc1ccc(-c2ccc(C(C)(C)O)nc2)cc1)c1nn[nH]n1 [Example 213] ?
Return: 1

Enquiry: Lookup N#CCCCC[C@H](C(=O)O)[C@H](Cc1ccccc1)c1nnn[nH]1 [Example 33]
Return: 0

Enquiry: Entry CC[C@H](C(=O)O)[C@H](Cc1ccccc1)c1nnn[nH]1 [Example 8] please
Return: 1

Enquiry: Now try CCCCC(C(=O)O)[C@@H](Cc1ccc(-c2ccc(S(C)(=O)=O)cc2)cc1)c1nn[nH]n1 (stereo in doubt) [Example 183] .
Return: 0

Enquiry: Same question for CCC[C@H](C(=O)O)[C@H](Cc1ccc(NC(C)CN(C)C)cc1)c1nn[nH]n1 (stereo partly shown) [Example 224] please.
Return: 0

###

- ASSAYED SYSTEM: VIM-1 (Pseudomonas aeruginosa)
- ASSAY: Enzyme activity: determination of IC50, fluorescence assay with CCF2-FA substrate
- Type: biochemical
- ASSAY CONDITIONS: VIM-1 enzyme 30 pM, CCF2-FA 1.25 μM, 2 hours at 25° C.; read-out: VIM1 IC50
MEASURED QUANTITY: pIC50
Worth noting: pIC50 values are minus log10 of concentrations stated in mol/L.

Enquiry: What does the record list as pIC50 for CNC1CC=C(c2ccc(C[C@H](c3nn[nH]n3)[C@H](CC(C)C)C(=O)O)cc2F)CC1 (stereo partly drawn) [Example 451, 2,2,2-trifluoroacetate] ?
Return: 8.00

Enquiry: And what about the molecule CC(C)C[C@H](C(=O)O)[C@H](Cc1ccc(Oc2ccc(CO)cc2)nc1)c1nn[nH]n1 [Example 383] ?
Return: 7.25

Enquiry: Then CC(C)C[C@H](C(=O)O)[C@H](Cc1ccc(N2CC(C)(CN)C2)nc1)c1nnn[nH]1 [Example 325] ?
Return: 7.44

###

- ASSAYED SYSTEM: NDM-1 (Klebsiella pneumoniae)
- ASSAY: Enzyme activity: determination of IC50, fluorescence assay with CCF2-FA substrate
- Format: biochemical
- ASSAY CONDITIONS: NDM-1 enzyme 1 pM, CCF2-FA 1.25 μM, 2 hours at 25° C.; read-out: NDM1 IC50
MEASURED QUANTITY: pIC50
pIC50 is defined as minus the log10 of a concentration measured in mol/L.

Enquiry: What measured pIC50 goes with CC(C)(C)[C@H](C(=O)O)[C@H](Cc1ccc(NCCN)nc1)c1nnn[nH]1.O=C(O)C(F)(F)F [Example 427, 2,2,2-trifluoroacetate] ?
Return: 6.92

Enquiry: Follow-up entry: CCC[C@H](C(=O)O)[C@H](Cc1cccc(N2CC[C@H](N)C2)c1)c1nn[nH]n1 [Example 369]
Return: 6.82

Enquiry: And what about the compound CCC[C@H](C(=O)O)[C@H](Cc1cccc(-c2ccc(N3CCOCC3)nc2)c1)c1nn[nH]n1 [Example 346] ?
Return: 7.68

Enquiry: Repeat with CC(C)C[C@H](C(=O)O)[C@H](Cc1ccc(Oc2cccc3c2CCCN3)nc1)c1nn[nH]n1 [Example 389]
Return: 7.80
